# target-under-test: T1, Sam domain of the EphA2 receptor (human, UniProt P29317 901-976)
# T1 sequence (looked up): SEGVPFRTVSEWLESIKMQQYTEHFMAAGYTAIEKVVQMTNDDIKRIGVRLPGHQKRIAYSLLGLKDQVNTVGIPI
# assay-info: ITC
readout: Kd (nM)

1) Sam domain of Ship2 (Src homology 2 domain-containing phosphoinositide-5-phosphatase 2) (domain or fragment, human, UniProt O15357 1194-1258, looked up) SGLGEAGMSAWLRAIGLERYEEGLVHNGWDDLEFLSDITEEDLEEAGVQDPAHKRLLLDTLQLSK | 750
